Molecular target: EGFR (Homo sapiens, UniProt P00533)
Assay: 125I-EGF whole-cell saturation binding, ZR-75-9a1 FCSdcc 2 years, Woolf analysis
pKd: −log10 of the molar value.
result type: pKd

binder="EGF (protein) NSYPGCPSSYDGYCLNGGVCMHIESLDSYTCNCVIGYSGDRCQTRDLRWWELR" result_type=pKd value=9.74

Reference for the values: paper PMC1977788
